Target: FLT3-ITD (Homo sapiens, UniProt P36888, ITD)
Sequence (P36888 27-993): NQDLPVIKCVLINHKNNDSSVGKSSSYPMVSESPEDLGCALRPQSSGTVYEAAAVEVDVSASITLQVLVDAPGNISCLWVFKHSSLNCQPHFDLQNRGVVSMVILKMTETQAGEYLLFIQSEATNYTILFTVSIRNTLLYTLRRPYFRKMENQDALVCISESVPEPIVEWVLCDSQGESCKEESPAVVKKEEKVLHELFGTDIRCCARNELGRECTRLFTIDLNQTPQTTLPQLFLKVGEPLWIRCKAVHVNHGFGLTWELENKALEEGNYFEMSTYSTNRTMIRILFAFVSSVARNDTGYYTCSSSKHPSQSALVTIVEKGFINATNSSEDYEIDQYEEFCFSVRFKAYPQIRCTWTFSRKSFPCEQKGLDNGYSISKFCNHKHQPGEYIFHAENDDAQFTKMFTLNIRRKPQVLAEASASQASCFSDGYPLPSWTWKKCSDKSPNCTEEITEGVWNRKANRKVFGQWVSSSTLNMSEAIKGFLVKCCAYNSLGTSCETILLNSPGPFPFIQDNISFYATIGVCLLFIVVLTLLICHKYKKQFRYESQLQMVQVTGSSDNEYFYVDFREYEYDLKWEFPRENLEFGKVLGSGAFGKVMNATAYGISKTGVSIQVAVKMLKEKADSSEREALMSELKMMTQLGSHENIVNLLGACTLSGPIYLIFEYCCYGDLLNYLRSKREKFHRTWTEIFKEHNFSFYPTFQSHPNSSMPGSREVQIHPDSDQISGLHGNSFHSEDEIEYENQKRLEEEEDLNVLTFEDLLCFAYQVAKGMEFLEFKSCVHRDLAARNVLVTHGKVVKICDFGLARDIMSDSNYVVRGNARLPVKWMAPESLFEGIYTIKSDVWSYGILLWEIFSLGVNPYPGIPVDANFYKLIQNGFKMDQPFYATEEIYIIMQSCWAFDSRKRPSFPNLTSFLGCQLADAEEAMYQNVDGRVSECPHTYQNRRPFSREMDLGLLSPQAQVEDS
Test: FLT3-ITD kinase inhibition
Response field label: string, one of Met (IC50 strictly below 400 nM) or Not met.

Here are 5 molecules together with their reported answers.
I'd appreciate it if you could check whether "COc1cc(-c2cn([C@H]3CC[C@@H](N4CCn5nc(C)cc5C4)CC3)c3ncnc(N)c23)ccc1NC(=O)c1cc2ccccc2n1C" has IC50 smaller than 400 nM. Not met

I'd appreciate it if you could check whether "COc1cc(-c2cn([C@H]3CC[C@@H](N4CCn5nccc5C4)CC3)c3ncnc(N)c23)ccc1NC(=O)c1cc2ccccc2n1C" has IC50 smaller than 400 nM. Not met

I'd appreciate it if you could check whether "Nc1ncnc2c1c(-c1ccc(Oc3ccccc3)cc1)cn2[C@H]1CC[C@H](NC(=O)c2ccccn2)CC1" has IC50 smaller than 400 nM. Not met

I'd appreciate it if you could check whether "Cn1ccc(CN[C@H]2CC[C@@H](n3cc(-c4ccc(Oc5ccccc5)cc4)c4c(N)ncnc43)CC2)n1" has IC50 smaller than 400 nM. Met

I'd appreciate it if you could check whether "Nc1ncnc2c1c(-c1ccc(Oc3ccccc3)cc1)cn2[C@H]1CC[C@@H](NC(=O)c2ccncc2)CC1" has IC50 smaller than 400 nM. Met

Others:
I'd appreciate it if you could check whether "COc1cc(-c2cn([C@H]3CC[C@@H](N4CCN(C)CC4)CC3)c3ncnc(N)c23)ccc1NC(=O)c1cc2ccccc2n1C" has IC50 smaller than 400 nM. Not met
